Organism: Mus musculus
method: Stimulation of alkaline phosphatase activity in mouse calvarial osteoblasts at 1 pM to 1 uM after 48 hrs by spectrophotometric analysis
Calls of active or inactive are those of the source. The rule behind the calls is not given here.
measured_property: Activity

{"molecule": "CCOC(=O)C1=C(C)NC2=C(C(=O)CC(C)(C)C2)C1c1cc(C(C)CC)c2oc(=O)c(C(=O)OC)cc2c1 (racemic)", "measured_result": "43%"}
{"molecule": "CCOC(=O)c1cc2cc(C3C(C(=O)OC)=C(C)NC4=C3C(=O)CCC4)cc(C(C)(C)C)c2oc1=O (racemic)", "measured_result": "10%"}
{"molecule": "COC(=O)C1=C(C)NC2=C(C(=O)CC(C)(C)C2)C1c1cc(C(C)(C)C)c2oc(=O)c(C(=O)OC)cc2c1 (racemic)", "measured_result": "10%"}
{"molecule": "CCOC(=O)C1=C(C)NC(C)=C(C(=O)OCC)C1c1cc(C(C)CC)c2oc(=O)c(C(=O)OC)cc2c1 (stereo unspecified)", "measured_result": "5%"}
{"molecule": "CCOC(=O)c1cc2cc(C3C(C(=O)OC)=C(C)NC(C)=C3C(=O)OC)cc(C(C)(C)C)c2oc1=O", "measured_result": "7%"}

Attention now turns to another entry.
Q: Please give the measured Activity for this molecule: COC(=O)c1cc2cc(C=O)cc(C(C)(C)C)c2oc1=O
Ans: inactive

* * *

Species on record: Mus musculus
method: Stimulation of alkaline phosphatase activity in mouse calvarial osteoblasts at 1 pM to 1 uM after 48 hrs by spectrophotometric analysis relative to nifedipine
Activity calls are given as the source filed them. The rule behind the calls is not given here.
measured_property: Activity

// below: answered molecules
{"molecule": "CCC(C)c1cc(C2C(C(=O)OC)=C(C)NC(C)=C2C(=O)OC)cc2cc(C(=O)OC)c(=O)oc12 (configuration not stated)", "Activity": "12%"}
{"molecule": "CCOC(=O)C1=C(C)NC(C)=C(C(=O)OCC)C1c1cc(C(C)CC)c2oc(=O)c(C(=O)OCC)cc2c1 (configuration not stated)", "Activity": "inactive"}
{"molecule": "CCOC(=O)c1cc2cc(C3C(C(=O)OC)=C(C)NC4=C3C(=O)CCC4)cc(C(C)CC)c2oc1=O (racemic)", "Activity": "inactive"}
{"molecule": "COC(=O)C1=C(C)NC2=C(C(=O)CC(C)(C)C2)C1c1cc(C(C)(C)C)c2oc(=O)c(C(=O)OC)cc2c1 (racemic)", "Activity": "inactive"}
{"molecule": "CCOC(=O)C1=C(C)NC2=C(C(=O)CCC2)C1c1cc(C(C)CC)c2oc(=O)c(C(=O)OC)cc2c1 (configuration not stated)", "Activity": "32%"}

Q: Please give the measured Activity for this molecule: CCOC(=O)C1=C(C)NC2=C(C(=O)CCC2)C1c1cc(C(C)(C)C)c2oc(=O)c(C(=O)OC)cc2c1 (racemic)
Ans: inactive

Q: Please give the measured Activity for this molecule: COC(=O)C1=C(C)NC2=C(C(=O)CCC2)C1c1cc(C(C)(C)C)c2oc(=O)c(C(=O)OC)cc2c1 (racemic)
Ans: inactive

* * *

Organism: Mus musculus
method: Stimulation of alkaline phosphatase activity in mouse calvarial osteoblasts at 1 pM to 1 uM after 48 hrs by spectrophotometric analysis relative to nifedipine
Active and inactive are the calls of the source. No cut-off for these calls is given here.
measured_property: Activity

// below: answered molecules
{"molecule": "CCOC(=O)c1cc2cc(C3C(C(=O)OC)=C(C)NC4=C3C(=O)CC(C)(C)C4)cc(C(C)CC)c2oc1=O (racemic)", "Activity": "16%"}
{"molecule": "CCOC(=O)c1cc2cc(C3C(C(=O)OC)=C(C)NC4=C3C(=O)CCC4)cc(C(C)(C)C)c2oc1=O (racemic)", "Activity": "inactive"}
{"molecule": "CCOC(=O)C1=C(C)NC(C)=C(C(=O)OCC)C1c1cc(C(C)(C)C)c2oc(=O)c(C(=O)OC)cc2c1", "Activity": "28%"}
{"molecule": "CCC(C)c1cc(C2C(C(=O)OC)=C(C)NC3=C2C(=O)CCC3)cc2cc(C(=O)OC)c(=O)oc12 (racemic)", "Activity": "inactive"}
{"molecule": "CCOC(=O)c1cc2cc(C3C(C(=O)OC)=C(C)NC(C)=C3C(=O)OC)cc(C(C)(C)C)c2oc1=O", "Activity": "inactive"}
{"molecule": "CCOC(=O)C1=C(C)NC2=C(C(=O)CC(C)(C)C2)C1c1cc(C(C)CC)c2oc(=O)c(C(=O)OC)cc2c1 (racemic)", "Activity": "17%"}
{"molecule": "CCOC(=O)C1=C(C)NC2=C(C(=O)CCC2)C1c1cc(C(C)CC)c2oc(=O)c(C(=O)OCC)cc2c1 (racemic)", "Activity": "14%"}
{"molecule": "CCOC(=O)C1=C(C)NC(C)=C(C(=O)OCC)C1c1cc(C(C)CC)c2oc(=O)c(C(=O)OC)cc2c1 (configuration not stated)", "Activity": "inactive"}
{"molecule": "CCOC(=O)c1cc2cc(C=O)cc(C(C)CC)c2oc1=O (configuration not stated)", "Activity": "inactive"}
{"molecule": "CCOC(=O)C1=C(C)NC2=C(C(=O)CC(C)(C)C2)C1c1cc(C(C)(C)C)c2oc(=O)c(C(=O)OCC)cc2c1 (racemic)", "Activity": "inactive"}

Q: Please give the measured Activity for this molecule: CCOC(=O)c1cc2cc(C3C(C(=O)OC)=C(C)NC(C)=C3C(=O)OC)cc(C(C)CC)c2oc1=O (configuration not stated)
Ans: inactive

Q: Please give the measured Activity for this molecule: CCOC(=O)C1=C(C)NC2=C(C(=O)CC(C)(C)C2)C1c1cc(C(C)CC)c2oc(=O)c(C(=O)OCC)cc2c1 (racemic)
Ans: inactive
